What Kd was measured for each of the following?
# system tested: human Siglec-2/CD22 protein (Homo sapiens, UniProt P20273)
# Sequence (P20273 20-847): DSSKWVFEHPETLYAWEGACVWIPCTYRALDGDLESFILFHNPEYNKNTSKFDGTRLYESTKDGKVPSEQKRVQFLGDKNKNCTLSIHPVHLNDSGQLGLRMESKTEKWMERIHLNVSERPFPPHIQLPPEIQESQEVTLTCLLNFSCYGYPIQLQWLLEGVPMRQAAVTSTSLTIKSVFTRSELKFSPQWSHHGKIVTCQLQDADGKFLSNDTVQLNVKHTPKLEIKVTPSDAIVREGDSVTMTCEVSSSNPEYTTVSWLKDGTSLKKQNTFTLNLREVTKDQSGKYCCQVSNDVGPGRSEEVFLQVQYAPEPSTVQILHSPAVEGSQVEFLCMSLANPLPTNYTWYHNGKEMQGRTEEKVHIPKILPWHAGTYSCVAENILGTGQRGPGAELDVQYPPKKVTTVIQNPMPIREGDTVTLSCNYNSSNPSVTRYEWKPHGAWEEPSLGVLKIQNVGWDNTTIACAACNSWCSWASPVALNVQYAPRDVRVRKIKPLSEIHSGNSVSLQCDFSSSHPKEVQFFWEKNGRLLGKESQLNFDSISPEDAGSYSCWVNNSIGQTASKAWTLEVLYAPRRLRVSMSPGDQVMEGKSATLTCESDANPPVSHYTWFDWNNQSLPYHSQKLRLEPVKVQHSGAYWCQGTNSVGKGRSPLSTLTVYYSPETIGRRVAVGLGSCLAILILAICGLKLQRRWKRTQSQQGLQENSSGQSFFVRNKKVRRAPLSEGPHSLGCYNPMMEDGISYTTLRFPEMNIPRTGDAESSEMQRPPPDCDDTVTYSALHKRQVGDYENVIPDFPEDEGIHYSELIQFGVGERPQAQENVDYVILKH
# measurement protocol: SPR binding affinity to human CD22
# particulars: steady-state analysis

Look up Kd: "C#CCOCCOCCO[C@]1(C(=O)O)C[C@H](O)[C@@H](NC(=O)CO)[C@H]([C@H](O)[C@H](O)CNC(=O)Cc2ccc(-c3cccc(C(=O)NC)c3)cc2)O1" 1 to 10 µM

I would be grateful if you could share the reported Kd for "C#CCOC[C@H](O)[C@@H](O)CO[C@]1(C(=O)O)C[C@H](O)[C@@H](NC(=O)CO)[C@H]([C@H](O)[C@H](O)CNC(=O)Cc2ccc(Cl)cc2)O1" . 1 to 10 µM

Would you mind telling me what Kd value was observed for "C#CCOCCOCCO[C@@]1(C(=O)O)O[C@@H]([C@H](O)[C@H](O)CNC(=O)Cc2ccc(-c3ccccc3)cc2)[C@H](NC(=O)CO)[C@@H](NC(=O)c2cccc(OC)c2)[C@@H]1O" ? < 1 µM

Reported Kd for "C#CCOCCOCCO[C@]1(C(=O)O)C[C@H](O)[C@@H](NC(=O)CO)[C@H]([C@H](O)[C@H](O)CNC(=O)C[C@H]2CC[C@@H](O)CC2)O1" : what is it? > 10 µM

Would you kindly share the measured Kd for "C#CCOCCOCCO[C@]1(C(=O)O)C[C@H](O)[C@@H](NC(=O)CO)[C@H]([C@H](O)[C@H](O)CNC(=O)Cc2ccc(-c3ccc(=O)[nH]c3)cc2)O1" ? 1 to 10 µM

I am curious: what Kd value has been reported for "O=C(O)CCCCCO[C@]1(C(=O)O)C[C@H](O)[C@@H](NC(=O)CO)[C@H]([C@H](O)[C@H](O)CNC(=O)Cc2ccc(Cl)cc2)O1" ? < 1 µM

Kd for "C#CCOCCCCCCO[C@]1(C(=O)O)C[C@H](O)[C@@H](NC(=O)N(C)C)[C@H]([C@H](O)[C@H](O)CNC(=O)Cc2ccc(Cl)cc2)O1" ? < 1 µM

Param item = "C#CCOC(=O)NCc1ccc(CO[C@]2(C(=O)O)C[C@H](O)[C@@H](NC(=O)CO)[C@H]([C@H](O)[C@H](O)CNC(=O)Cc3ccc(Cl)cc3)O2)cc1" ; retrieve measured Kd. < 1 µM

Need Kd of "CC(=O)NCCOCCOCCOCCOCCNc1c(NCCCCCCO[C@]2(C(=O)O)C[C@H](O)[C@@H](NC(C)=O)[C@H]([C@H](O)[C@H](O)CNC(=O)c3cccc(Cl)c3)O2)c(=O)c1=O" , thanks. 1 to 10 µM

Requested read-out: Kd. Entry: "C#CCOCCOCCO[C@]1(C(=O)O)C[C@H](O)[C@@H](NS(=O)(=O)NC)[C@H]([C@H](O)[C@H](O)CNC(=O)Cc2ccc(-c3ccc(O)cc3)cc2)O1" > 10 µM

Need Kd of "O=C(O)CCCCCCCCCCCCCCCO[C@]1(C(=O)O)C[C@H](O)[C@@H](NC(=O)CO)[C@H]([C@H](O)[C@H](O)CNC(=O)Cc2ccc(Cl)cc2)O1" , thanks. < 1 µM

What measured Kd goes with "CC(=O)NCCOCCOCCOCCOCCC(=O)NCCCCCO[C@]1(C(=O)O)C[C@H](O)[C@@H](NC(=O)CO)[C@H]([C@H](O)[C@H](O)CNC(=O)Cc2ccc(Cl)cc2)O1" ? < 1 µM

Field request: Kd | item: "C#CCOc1ccc(CO[C@]2(C(=O)O)C[C@H](O)[C@@H](NC(=O)CO)[C@H]([C@H](O)[C@H](O)CNC(=O)Cc3ccc(F)cc3)O2)cc1" < 1 µM

* * *

Field: pKd. Provide a value for each of the compounds that follow.
# system tested: human Siglec-2/CD22 protein (Homo sapiens, UniProt P20273)
# Sequence (P20273 20-847): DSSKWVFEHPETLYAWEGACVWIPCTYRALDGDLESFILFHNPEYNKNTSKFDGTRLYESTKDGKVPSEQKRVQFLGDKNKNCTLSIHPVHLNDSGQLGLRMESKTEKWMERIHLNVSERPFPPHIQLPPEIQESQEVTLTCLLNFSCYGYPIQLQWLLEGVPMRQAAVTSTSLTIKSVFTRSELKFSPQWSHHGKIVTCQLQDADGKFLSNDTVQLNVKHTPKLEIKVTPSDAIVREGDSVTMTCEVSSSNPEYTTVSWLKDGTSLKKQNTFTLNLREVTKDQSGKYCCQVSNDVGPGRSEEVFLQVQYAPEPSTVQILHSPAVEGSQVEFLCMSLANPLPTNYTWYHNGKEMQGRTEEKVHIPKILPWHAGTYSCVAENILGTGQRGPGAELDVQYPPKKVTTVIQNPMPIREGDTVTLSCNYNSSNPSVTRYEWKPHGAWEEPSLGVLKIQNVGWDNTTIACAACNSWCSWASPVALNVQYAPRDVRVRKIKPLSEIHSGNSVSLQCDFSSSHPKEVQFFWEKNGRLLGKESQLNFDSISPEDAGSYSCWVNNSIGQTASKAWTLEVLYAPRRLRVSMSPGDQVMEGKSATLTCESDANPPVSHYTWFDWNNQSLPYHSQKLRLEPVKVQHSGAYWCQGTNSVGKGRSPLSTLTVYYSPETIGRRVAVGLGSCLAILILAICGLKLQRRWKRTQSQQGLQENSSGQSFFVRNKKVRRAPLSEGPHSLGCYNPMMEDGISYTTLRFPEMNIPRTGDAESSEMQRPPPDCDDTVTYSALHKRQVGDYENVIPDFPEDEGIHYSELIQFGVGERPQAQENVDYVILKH
# measurement protocol: SPR binding affinity to human CD22
# particulars: steady-state analysis
pKd: −log10 of the molar value.

What does the record list as pKd for C#CCCOc1ccc(CS[C@]2(C(=O)O)C[C@H](O)[C@@H](NC(=O)CO)[C@H]([C@H](O)[C@H](O)CNC(=O)Cc3ccc(Cl)c(O)c3)O2)cc1 [Compound 131] ? > 6.00

Which pKd is listed for O=C(O)CCCCCCO[C@]1(C(=O)O)C[C@H](O)[C@@H](NC(=O)CO)[C@H]([C@H](O)[C@H](O)CNC(=O)Cc2cccc(O)c2)O1 [Compound 143] ? > 6.00

So what does the record say about pKd for CC(=O)NCCOCCOCCOCCOCc1cn(CCCCCCO[C@]2(C(=O)O)C[C@H](O)[C@@H](NC(=O)CO)[C@H]([C@H](O)[C@H](O)CNC(=O)Cc3ccc(Cl)cc3)O2)nn1 [Cpd. 246] ? > 6.00

Please report the recorded pKd for C#Cc1ccc(CO[C@]2(C(=O)O)C[C@H](O)[C@@H](NC(=O)CO)[C@H]([C@H](O)[C@H](O)CNC(=O)Cc3ccc(Cl)cc3)O2)cc1 [Compound 114] . > 6.00

// query pKd value for entry C#CCOCCCCCCS[C@]1(C(=O)O)C[C@H](O)[C@@H](NC(=O)CO)[C@H]([C@H](O)[C@H](O)CNC(=O)c2ccc(Cl)cc2)O1 [Compound 251] 5.00 to 6.00

Which pKd value is on record for CCCCCC[C@H](O)[C@]1(C(=O)O)C[C@H](O)[C@@H](NC(=O)CO)[C@H]([C@H](O)[C@H](O)CNC(=O)Cc2ccc(Cl)cc2)O1 [Compound 203] ? > 6.00
